Tested on: SNARK
Construct: gene NUAK2
measurement.conditions: concentration: 1 μM, replicates: in singlicate; n = 1;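 also: KINOMEscan kinase panel screen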
assay.readout: %Inh (%)
Numbers only, in %.

Completed entries (count: 5):
COC(=O)Nc1nc2cc(Oc3ccc(NC(=O)Nc4cc(F)ccc4F)cc3)ccc2[nH]1.Cl :: 0
COc1ccc(S(=O)(=O)NC2CCN(c3cc(C)nc(Nc4cccc(C#N)c4)n3)CC2)cc1.O=C(O)C(F)(F)F :: 0
O=C(c1ccc(-c2cc(-c3c[nH]nc3-c3ccccn3)ccn2)cc1)N1CCOCC1 :: 16
COc1ccc(COc2cc(-n3cnc4ccccc43)sc2C(N)=O)cc1 :: 2
COc1cc2c(cc1OCCN1CCN(C)CC1)ncc1c3ccc(C#N)cc3[nH]c21 :: 97.1

Dear colleague, could you send me %Inh for each of the items below? Thanks.
1. CC(C)(C)n1cnc2c(N)ncnc21
2. Fc1ccc(-c2ncn(CCCN3CCOCC3)c2-c2ccccn2)cc1

Result block:
1: 0; 2: 0

Dear colleague, could you send me %Inh for each of the items below? Thanks.
1. O=C(NCCCN1CCOCC1)c1cccc(Nc2nccc(Nc3ccc(Oc4ccccc4)cc3)n2)c1
2. N#Cc1c(N2CCOCC2)sc(-c2ccn[nH]2)c1-c1ccc(Cl)cc1
3. Cc1c2ccc(N(C)c3ccnc(Nc4cccc(S(N)(=O)=O)c4)n3)cc2nn1Cc1ccccc1.Cl.Cl

Result block:
1: 22; 2: 5; 3: 0

Dear colleague, could you send me %Inh for each of the items below? Thanks.
1. COc1ccc(Nc2nccc(N3CCC(NC(=O)Nc4cccc(C(C)=O)c4)C3)n2)cc1 (stereo not drawn)
2. Cc1c(Cn2c(C)nn3c(=O)cc(N4CCOC(C)C4)nc23)cccc1C(F)(F)F (stereo not drawn)
3. Cc1cccc(Cn2ccn3c(=O)cc(N4CCOCC4)nc23)c1
4. Cc1nnc(-c2ccc3ncc(-c4ccc(S(C)=O)cc4)n3c2)o1 (stereo not drawn)

Result block:
1: 0; 2: 0; 3: 3; 4: 0

Dear colleague, could you send me %Inh for each of the items below? Thanks.
1. Cc1nnc(-c2ccc3occ(-c4ccc(C(C)O)cc4)c3c2)o1 (stereo not drawn)
2. COc1cc(Nc2nccc(N3CCC(NC(=O)c4cccc(NC(C)=O)c4)C3)n2)cc(OC)c1OC (stereo not drawn)
3. Cn1cc(-c2ccc3c(c2)CCN3C(=O)Cc2ccccc2Cl)c2c(N)ncnc21
4. CN1c2ccc(NCc3ccc(F)cc3)cc2-c2c(cnn2C)S1(=O)=O

Result block:
1: 2; 2: 57; 3: 89; 4: 0

====

System: EPHB6
measurement.conditions: concentration: 1 μM, replicates: in singlicate; n = 1
Provide the reported %Inh of each item.
Give bare numbers, in %.

Completed entries (count: 3):
O=C1Cc2cc(Nc3nc(NCc4cccc(S(=O)(=O)C(F)(F)F)c4)ncc3C(F)(F)F)ccc2N1 :: 0
O=c1cc(N2CCOCC2)nc2n(Cc3cccc(C(F)(F)F)c3)ccn12 :: 0
CC(C)Oc1ccc2c(-c3ccnc(Nc4ccc(N5CCN(C)CC5)cc4)n3)cnn2n1 :: 70

Okay, next one:
Query block: Endpoint output: %Inh of Cl.Nc1ncnc2occ(-c3ccc(NC(=O)Nc4cc(C(F)(F)F)ccc4F)cc3)c12 . Value?
Result block: 98.6

====

Tested on: CSNK1D
measurement.conditions: concentration: 1 μM, replicates: in singlicate; n = 1
assay.readout: %Inh (%)
One number for each entry, in %.

Completed entries (count: 5):
O=c1cc(N2CCOCC2)nc2n(Cc3cccc(Cl)c3Cl)c(C3CC3)nn12 :: 7
c1ccc(-c2cc(-c3c[nH]nc3-c3ccccn3)ccn2)cc1 :: 38
COc1ccc(Nc2ncc(C#N)c(Nc3ccccc3C(N)=O)n2)cc1N1CCN(C)CC1.Cl :: 66
Cc1cn2c(=O)cc(N3CCOCC3)nc2n1Cc1cccc(Cl)c1Cl :: 43
O=c1cc(N2CCOCC2)nc2n(Cc3cccc4ccccc34)ccn12 :: 42

Dear colleague, could you send me %Inh for each of the items below? Thanks.
1. CC(=O)Nc1ccc(COc2ccc(Nc3ccnc4cc(-c5ccccn5)ccc34)cc2)cc1.Cl
2. COc1ccc(Nc2nccc(N3CCC(NC(=O)Nc4cccc(C(C)=O)c4)C3)n2)cc1 (centres unmarked)
3. Cl.Nc1ncnc2occ(-c3ccc(NC(=O)Nc4cc(C(F)(F)F)ccc4F)cc3)c12
4. COc1ccc(S(=O)(=O)NC2CCN(c3cc(C)nc(Nc4cccc(C#N)c4)n3)CC2)cc1.O=C(O)C(F)(F)F
5. O=C1Cc2cc(Nc3nc(NCc4cccc(S(=O)(=O)C(F)(F)F)c4)ncc3C(F)(F)F)ccc2N1
6. N#Cc1c(N2CCOCC2)sc(-c2ccn[nH]2)c1-c1ccc(Cl)cc1

Result block:
[24, 0, 32, 19, 0, 0]

Dear colleague, could you send me %Inh for each of the items below? Thanks.
1. NS(=O)(=O)c1cccc(-c2ccc3nccc(-c4cccc(S(N)(=O)=O)c4)c3c2)c1
2. N#Cc1ccc(-c2cc(-c3c[nH]nc3-c3ccccn3)ccn2)cc1
3. Cc1cccc(Cn2ccn3c(=O)cc(N4CCOCC4)nc23)c1
4. Cc1ccc(NC(=O)c2ccnc(N3CCN(C)CC3)c2)cc1-c1ccc(C(=O)NCC2CC2)cc1
5. COc1cc(Nc2nccc(N3CCC(NC(=O)c4cccc(NC(C)=O)c4)C3)n2)cc(OC)c1OC (centres unmarked)
6. CCCCCc1nc2c(N)ncnc2n1CCCCC

Result block:
1. 0
2. 62
3. 48
4. 0
5. 0
6. 0

Dear colleague, could you send me %Inh for each of the items below? Thanks.
1. NS(=O)(=O)c1cccc(-c2ccc3ncc(N4CCOCC4)nc3c2)c1
2. C[C@@H](Oc1cc(-n2cnc3ccc(NC(=O)NC(C)(C)C)cc32)sc1C(N)=O)c1ccccc1Cl
3. COc1ccc(COc2cc(-n3cnc4ccccc43)sc2C(N)=O)cc1
4. Cc1cccc(-c2nc(Nc3ccc4ncsc4c3)c3ccccc3n2)n1
5. Cn1cc(-c2ccc3c(c2)CCN3C(=O)Cc2ccccc2Cl)c2c(N)ncnc21
6. CNc1ncnc2[nH]ncc12
7. Cc1cccc(-c2nc(-c3ccc(S(C)(=O)=O)cc3)sc2-c2ccncc2)c1
8. COc1ccc(Nc2nccc(N3CCC(NC(=O)Nc4cc(C)ccc4C)C3)n2)cc1 (centres unmarked)

Result block:
1: 16; 2: 3; 3: 0; 4: 0; 5: 11; 6: 0; 7: 16; 8: 0

Dear colleague, could you send me %Inh for each of the items below? Thanks.
1. [2H]C([2H])(c1cccc(C(F)(F)F)c1C)n1ccn2c(=O)nc(N3CCOCC3)cc12
2. Cl.Oc1cccc(Nc2ccnc3cc(-c4ccncc4)ccc23)c1
3. CSc1ccc(-c2cc3ncnc(SCC(=O)O)c3s2)cc1
4. Cn1ccc2ncnc(Oc3ccc(NC(=O)Nc4ccncc4)c(Cl)c3)c21

Result block:
[19, 28, 0, 0]

====

Provide the reported %Inh of each item.
Test system: DYRK1A
measurement.conditions: concentration: 1 μM, replicates: in singlicate; n = 1
One number for each entry, in %.

Completed entries (count: 8):
O=C(NCCCN1CCOCC1)c1cccc(Nc2nccc(Nc3ccc(Oc4ccccc4)cc3)n2)c1 :: 0
Cc1cccc(Cn2ccn3c(=O)cc(N4CCOCC4)nc23)c1 :: 24
Cc1cccc(-c2nc(Nc3ccc4ncsc4c3)c3ccccc3n2)n1 :: 3
Cl.Oc1cccc(Nc2ccnc3cc(-c4ccncc4)ccc23)c1 :: 25
CCCCCc1nc2c(N)ncnc2n1CCCCC :: 0
O=C1Cc2cc(Nc3nc(NCc4cccc(S(=O)(=O)C(F)(F)F)c4)ncc3C(F)(F)F)ccc2N1 :: 13
N#Cc1c(N2CCOCC2)sc(-c2ccn[nH]2)c1-c1ccc(Cl)cc1 :: 0
Fc1ccc(-c2nn3c(OCC(F)(F)F)cccc3c2-c2ccncc2)cc1 :: 3

Query block: Endpoint output: %Inh of Fc1ccc(-c2ncn(CCCN3CCOCC3)c2-c2cccnc2)cc1 . Value?
Result block: 3

====

Test system: CSF1R-autoinhibited
measurement.conditions: concentration: 1 μM, replicates: in singlicate; n = 1
assay.readout: %Inh (%)
Numbers only, in %.

Dear colleague, could you send me %Inh for each of the items below? Thanks.
1. COc1ccc(Nc2nccc(N3CCC(NC(=O)Nc4cc(C)ccc4C)C3)n2)cc1 (stereo not drawn)
2. O=c1cc(N2CCOCC2)nc2n(Cc3cccc(Cl)c3Cl)c(C3CC3)nn12
3. Cc1cccc(Cn2ccn3c(=O)cc(N4CCOCC4)nc23)c1
4. CN1c2ccc(NCc3ccc(F)cc3)cc2-c2c(cnn2C)S1(=O)=O
5. CN(C1=C(c2ccccc2)C(=O)NC1=O)c1ccccc1
6. O=C(NCCNc1ccnc(Nc2ccc(F)cc2)n1)c1cc2ccccc2s1
7. Fc1ccc(-c2ncn(CCCN3CCOCC3)c2-c2cccnc2)cc1
8. CCCCCc1nc2c(N)ncnc2n1CCCCC

Result block:
1: 0; 2: 0; 3: 8; 4: 1; 5: 0; 6: 8; 7: 0; 8: 0

Query block: Recall the recorded %Inh for CCc1nc(-c2cccc(C)c2)c(-c2ccnc(NCc3ccccc3)c2)s1 with CSF1R-autoinhibited and state it.
Result block: 0
